Test: galactose survival enhancers in mitochondrial complex I cybrids – cell-based, galactose medium, ATP luminescence, primary screen (AID 1645843);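 also: positive z means more ATP and so rescue of galactose-driven cybrid death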
Details: complex I mutant cybrid cells, 72 h, hits give high values
Lab note: anything with z-score at or over 0.7 counts as rule met; the rest go in rule not met.

| MOLECULE | LABEL |
| --- | --- |
| CCCCCCCCCCCCCCCCn1cc[n+](Cc2ccccc2)c1C | rule not met |
| CC(C)=CC[C@@H](O)C1=CC(=O)c2c(O)ccc(O)c2C1=O | rule not met |
| CCCCN1CCC(CCC(=O)c2cc(Cl)c(N)cc2OC)CC1 | rule not met |
| CC1Nc2ccc(Cl)cc2S(=O)(=O)N1 (stereo unspecified) | rule not met |
| O=C(O)COc1ccc(OCCNC[C@@H](O)COc2ccccc2)cc1 | rule met |
